Recorded EC50 values for a group of molecules are listed next.
System: Daudi (Burkitt Lymphoma) cells
assay details: Intracellular lactate accumulation assay (Lactate-Glo, 2 h treatment)
Format: cell-based
applied conditions: Homo sapiens, read-out: LactateGlo EC50

What value of EC50 has been reported for the following molecule? COc1cc(NC(=O)OC(C)C)ccc1-c1cnc([C@H]2CC[C@H](NC(=O)OC(C)C)CC2)s1 [Example 14] 150 to 1000 nM

State the recorded EC50 for this entry: CC(C)OC(=O)Nc1ccc(-c2cnc([C@H]3CC[C@H](NC(=O)OC(C)C)CC3)s2)c(F)c1 [Example 23] > 5000 nM

Returns the measured EC50 for the input molecule. Input: CC(C)OC(=O)N[C@H]1CC[C@H](c2ncc(-c3ccc(NC(=O)NCc4ccccc4)cc3N)s2)CC1 [Example 19] < 50 nM

If you can, please state the reported EC50 value of CC(C)OC(=O)N[C@H]1CC[C@H](c2ncc(-c3ccc(NC(=O)NCc4ccccc4)cc3O)s2)CC1 [Example 20] . < 50 nM

* * *

The following compounds are shown together with reported IC50 values.
assayed target: human MCT1 (Homo sapiens)
Construct: expressed in transfected cells; host or cells: MDCK-II cells, transiently co-transfected for 48 h
assay details: MCT1 transport inhibition assay (TPGA uptake, LC-MS/MS)
Assay type: cell-based
applied conditions: MDCK-II cells overexpressing human MCT1, TPGA transport; numeric values; read-out: BioIVT MCT1 Transporter IC50
Report the value in nM with no unit label.

# lookup: IC50 of O=C(Nc1ccccc1C(=O)O)c1cc(S(=O)(=O)c2ccccc2)ccc1Cl 73

Pending compound:
Fill blank: measured IC50 of the compound Cc1[nH]nc(C(F)(F)F)c1Cc1sc2c(c1C(=O)N1C[C@](C)(O)CO1)c(=O)n(C)c(=O)n2C(C)C is ____. 190

* * *

assayed target: human MCT1 (Homo sapiens, UniProt P53985)
Construct: expressed in transfected cells; host or cells: MDCK-II cells, transiently co-transfected for 48 h
Sequence (P53985 1-500): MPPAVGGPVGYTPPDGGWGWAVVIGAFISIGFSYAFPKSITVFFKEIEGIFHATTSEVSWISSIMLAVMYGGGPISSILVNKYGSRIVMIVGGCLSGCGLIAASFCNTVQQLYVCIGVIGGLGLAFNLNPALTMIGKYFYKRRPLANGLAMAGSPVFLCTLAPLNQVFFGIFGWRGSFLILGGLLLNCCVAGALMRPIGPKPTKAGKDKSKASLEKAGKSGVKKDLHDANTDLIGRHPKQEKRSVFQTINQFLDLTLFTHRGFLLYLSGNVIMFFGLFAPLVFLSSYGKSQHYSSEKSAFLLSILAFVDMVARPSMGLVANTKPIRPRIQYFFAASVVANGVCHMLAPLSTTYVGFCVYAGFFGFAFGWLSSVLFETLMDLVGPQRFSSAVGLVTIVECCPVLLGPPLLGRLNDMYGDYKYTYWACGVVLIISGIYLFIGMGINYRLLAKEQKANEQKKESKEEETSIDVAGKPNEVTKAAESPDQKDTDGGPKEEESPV
Sequence (P35613 140-385 partner limits assumed): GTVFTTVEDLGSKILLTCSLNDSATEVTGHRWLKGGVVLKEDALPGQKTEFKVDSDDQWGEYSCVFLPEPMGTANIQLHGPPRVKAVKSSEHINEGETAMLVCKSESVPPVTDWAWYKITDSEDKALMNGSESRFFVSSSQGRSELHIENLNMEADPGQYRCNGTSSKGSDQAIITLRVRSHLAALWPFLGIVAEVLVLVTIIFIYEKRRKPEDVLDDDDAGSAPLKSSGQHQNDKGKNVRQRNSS
assay details: MCT1 transport inhibition assay (TPGA uptake, LC-MS/MS)
Format: cell-based
applied conditions: MDCK-II cells overexpressing human MCT1, TPGA transport; class symbols; read-out: BioIVT MCT1 Transporter IC50
pIC50: −log10 of the molar value.
attribute measured: pIC50

Can you share its pIC50? I mean this molecule: COCCn1c(-c2ccc(NC(=O)OC(C)C)cc2F)cnc1[C@H]1CC[C@H](NC(=O)OC(C)C)CC1 < 5.30

Data provenance: patent US20250276952A1
